# System: OKP-GS (renal cell carcinoma)
# experimental_protocol: MTT cell proliferation assay, OKP-GS
# Format: cell-based
# experimental_conditions: 72 h of exposition, read-out: Anti-proliferative activity IC50, OKP-GS
Recorded pIC50, one value per entry.
# pIC50 is unitless: minus log10 of the molar concentration; print number only

>>> df
                                   compound  observed_value
0  Cc1cn(-c2cc(NC(=O)c3cccc(C(=O)Nc4cccc(C(F)(F)F)c4)c3)cc(C(F)(F)F)c2)cn1            4.75
1  Cc1cn(-c2cc(NC(=O)c3cccc(C(=O)Nc4cc(-n5cnc(C)c5)cc(C(F)(F)F)c4)c3)cc(C(F)(F)F)c2)cn1            4.88

Moving on to the next compound.
Give the reported pIC50 for Cc1cn(-c2cc(NC(=O)c3ccc(C)c(Nc4nccc(-c5cccnc5)n4)c3)cc(C(F)(F)F)c2)cn1 [Nilotinib, reference compound] (system: OKP-GS (renal cell carcinoma)).
5.56

====

# Tested on: K562 cells
# experimental_protocol: Cell cycle analysis (propidium iodide, flow cytometry)
# Format: cell-based
# experimental_conditions: K562, 1 µM, 48 h
# Description: Tumor cells were seeded on a 6-well plate at a density of 400,000 per well for K562. Test compounds 5, 14 and 15 were added at concentrations of 1, 5 and 10 μM in duplicate for 48 h. […] As shown above, compounds 5, 14 and 15 had significant antiproliferative activities, which is why their influences on the cell cycle and apoptosis level were determined, with the aim of understanding whether these effects are cytostatic or cytotoxic. […]
reported_property: S, % (%)
The response must be a number in % with no trailing unit.

A selection of reference data follows.
>>> df
                                   compound  reported_property  quantity_unit  observed_value
0  Cc1cn(-c2cc(NC(=O)c3cccc(C(=O)N4CCN(C(=O)c5cccc(F)c5)CC4)c3)cc(C(F)(F)F)c2)cn1               S, %              %           21.31
1  CNC(=O)c1cc(Oc2ccc(NC(=O)Nc3ccc(Cl)c(C(F)(F)F)c3)cc2)ccn1 [Sorafenib, reference compound]               S, %              %            7.72
2  Cc1cn(-c2cc(NC(=O)c3cccc(C(=O)N4CCN(C(=O)c5ccccc5F)CC4)c3)cc(C(F)(F)F)c2)cn1               S, %              %           20.41

Moving on to the next compound.
Query (compound): CS(=O)(=O)CCNCc1ccc(-c2ccc3ncnc(Nc4ccc(OCc5cccc(F)c5)c(Cl)c4)c3c2)o1 [Lapatinib, reference compound] ; field requested: S, %
13.31

====

# assay_target: PDGFRβ (Homo sapiens)
# Construct: purchased Promega
# Sequence (P09619 33-1106): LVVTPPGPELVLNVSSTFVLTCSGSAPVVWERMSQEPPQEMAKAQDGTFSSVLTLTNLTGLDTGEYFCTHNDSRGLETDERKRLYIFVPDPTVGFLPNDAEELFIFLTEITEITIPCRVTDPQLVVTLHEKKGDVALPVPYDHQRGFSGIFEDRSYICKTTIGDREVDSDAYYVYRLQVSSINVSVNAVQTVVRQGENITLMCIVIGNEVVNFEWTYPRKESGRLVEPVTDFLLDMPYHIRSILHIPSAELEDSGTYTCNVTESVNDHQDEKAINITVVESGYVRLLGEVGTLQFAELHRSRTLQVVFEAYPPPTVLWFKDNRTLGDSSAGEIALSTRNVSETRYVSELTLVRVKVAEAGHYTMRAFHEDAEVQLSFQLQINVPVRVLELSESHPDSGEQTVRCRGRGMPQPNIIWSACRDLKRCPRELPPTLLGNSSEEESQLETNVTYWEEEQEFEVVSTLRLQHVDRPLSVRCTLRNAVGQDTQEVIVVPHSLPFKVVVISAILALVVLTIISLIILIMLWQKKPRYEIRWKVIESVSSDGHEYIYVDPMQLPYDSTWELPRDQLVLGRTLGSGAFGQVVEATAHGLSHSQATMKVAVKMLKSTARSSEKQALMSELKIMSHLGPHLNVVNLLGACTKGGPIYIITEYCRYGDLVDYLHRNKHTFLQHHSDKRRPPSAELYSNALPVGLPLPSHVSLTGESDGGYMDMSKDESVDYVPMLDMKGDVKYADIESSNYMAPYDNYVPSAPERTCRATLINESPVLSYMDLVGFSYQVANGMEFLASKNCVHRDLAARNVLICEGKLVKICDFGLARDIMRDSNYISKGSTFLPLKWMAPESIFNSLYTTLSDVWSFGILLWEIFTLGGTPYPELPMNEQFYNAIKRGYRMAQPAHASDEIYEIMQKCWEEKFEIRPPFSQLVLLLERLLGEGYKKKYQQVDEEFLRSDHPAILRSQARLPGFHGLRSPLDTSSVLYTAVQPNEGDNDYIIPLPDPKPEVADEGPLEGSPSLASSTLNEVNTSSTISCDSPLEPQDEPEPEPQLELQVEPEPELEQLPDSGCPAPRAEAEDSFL
# experimental_protocol: ADP-Glo kinase assay, PDGFRβ
# Assay type: biochemical
inhibition at 10 µM below 20% gives 0.0; inhibition at 10 µM at or above it gives 1.0.

Record excerpt, results attached:
                                   compound  group_label
0  O=C(Nc1cccc(C(F)(F)F)c1)c1cccc(C(=O)N2CCN(C(=O)c3cccc(F)c3)CC2)c1 [Compound 9]          1.0
1  Cc1cn(-c2cc(NC(=O)c3cccc(C(=O)N4CCN(C(=O)c5ccccc5F)CC4)c3)cc(C(F)(F)F)c2)cn1 [Compound 14]          1.0
2  Cc1cn(-c2cc(NC(=O)c3ccc(C(=O)Nc4cc([N+](=O)[O-])ccc4C)cc3)cc(C(F)(F)F)c2)cn1 [Compound 24]          0.0

Determine whether measured inhibition at 10 µM meets or exceeds 20% for Cc1cn(-c2cc(NC(=O)c3ccc(C(=O)Nc4cccc(C(F)(F)F)c4)cc3)cc(C(F)(F)F)c2)cn1 [Compound 17]
0.0

Determine whether measured inhibition at 10 µM meets or exceeds 20% for CS(=O)(=O)CCNCc1ccc(-c2ccc3ncnc(Nc4ccc(OCc5cccc(F)c5)c(Cl)c4)c3c2)o1 [Lapatinib, reference compound]
0.0

====

# assay_target: KDR (VEGFR-2) (Homo sapiens)
# Construct: purchased Promega
# Sequence (P35968 20-1356): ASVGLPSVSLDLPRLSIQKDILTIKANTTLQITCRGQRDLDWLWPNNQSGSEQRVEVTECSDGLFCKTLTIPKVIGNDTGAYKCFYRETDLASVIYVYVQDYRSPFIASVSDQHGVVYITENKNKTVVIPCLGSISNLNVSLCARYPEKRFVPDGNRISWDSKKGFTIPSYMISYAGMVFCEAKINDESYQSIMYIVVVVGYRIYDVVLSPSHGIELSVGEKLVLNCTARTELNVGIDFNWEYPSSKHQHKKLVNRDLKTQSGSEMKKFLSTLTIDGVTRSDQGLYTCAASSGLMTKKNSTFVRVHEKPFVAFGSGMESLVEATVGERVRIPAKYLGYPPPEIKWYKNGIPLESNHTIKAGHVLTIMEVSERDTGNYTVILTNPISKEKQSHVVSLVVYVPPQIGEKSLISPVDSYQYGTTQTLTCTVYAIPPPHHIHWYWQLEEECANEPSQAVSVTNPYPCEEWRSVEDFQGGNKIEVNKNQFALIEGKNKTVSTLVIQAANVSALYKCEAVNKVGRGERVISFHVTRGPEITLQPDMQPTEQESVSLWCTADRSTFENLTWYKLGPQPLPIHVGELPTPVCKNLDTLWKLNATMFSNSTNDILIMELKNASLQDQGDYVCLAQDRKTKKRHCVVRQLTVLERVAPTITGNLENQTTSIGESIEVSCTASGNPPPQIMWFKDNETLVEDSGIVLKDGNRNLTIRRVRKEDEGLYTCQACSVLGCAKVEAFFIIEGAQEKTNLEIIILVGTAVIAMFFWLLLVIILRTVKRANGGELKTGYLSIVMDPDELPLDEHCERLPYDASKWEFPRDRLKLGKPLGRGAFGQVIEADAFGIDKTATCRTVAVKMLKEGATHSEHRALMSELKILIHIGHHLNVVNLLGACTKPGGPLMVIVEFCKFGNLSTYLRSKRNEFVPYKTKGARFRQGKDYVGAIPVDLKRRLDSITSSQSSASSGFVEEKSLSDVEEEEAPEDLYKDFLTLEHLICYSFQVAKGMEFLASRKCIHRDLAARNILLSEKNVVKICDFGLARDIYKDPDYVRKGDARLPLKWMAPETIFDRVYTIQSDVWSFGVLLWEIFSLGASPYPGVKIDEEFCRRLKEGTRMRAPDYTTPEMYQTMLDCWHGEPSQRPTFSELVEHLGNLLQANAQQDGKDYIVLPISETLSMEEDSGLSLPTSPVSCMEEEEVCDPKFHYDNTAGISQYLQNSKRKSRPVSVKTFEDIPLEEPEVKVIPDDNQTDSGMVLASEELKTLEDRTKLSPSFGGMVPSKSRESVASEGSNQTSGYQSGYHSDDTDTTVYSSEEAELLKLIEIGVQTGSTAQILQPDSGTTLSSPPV
# experimental_protocol: ADP-Glo kinase assay, KDR
# Assay type: biochemical
inhibition at 10 µM below 20% gives 0; inhibition at 10 µM at or above it gives 1.

Record excerpt, results attached:
>>> df
                                   molecule  group_label
0  Cc1cn(-c2cc(NC(=O)c3ccc(C(=O)Nc4cc([N+](=O)[O-])ccc4C)cc3)cc(C(F)(F)F)c2)cn1 [Compound 24]            0
1  Cc1cn(-c2cc(NC(=O)c3cccc(C(=O)N4CCN(C(=O)c5ccccc5F)CC4)c3)cc(C(F)(F)F)c2)cn1 [Compound 14]            1
2  O=C(Nc1cccc(C(F)(F)F)c1)c1cccc(C(=O)N2CCN(C(=O)c3ccccc3F)CC2)c1 [Compound 8]            1
3  Cc1cn(-c2cc(NC(=O)c3cccc(C(=O)Nc4cc(-n5cnc(C)c5)cc(C(F)(F)F)c4)c3)cc(C(F)(F)F)c2)cn1 [Compound 10]            1
4  O=C(Nc1cccc(C(F)(F)F)c1)c1cccc(C(=O)N2CCN(C(=O)c3cccc(F)c3)CC2)c1 [Compound 9]            1
5  Cc1cn(-c2cc(NC(=O)c3cccc(C(=O)Nc4cccc(C(F)(F)F)c4)c3)cc(C(F)(F)F)c2)cn1 [Compound 5]            0
6  Cc1cn(-c2cc(NC(=O)c3ccc(C(=O)Nc4cccc(C(F)(F)F)c4)cc3)cc(C(F)(F)F)c2)cn1 [Compound 17]            0

Determine whether measured inhibition at 10 µM meets or exceeds 20% for COc1ccc(C(=O)N2CCN(C(=O)c3ccc(C(=O)Nc4cccc(C(F)(F)F)c4)cc3)CC2)cc1 [Compound 19]
0

====

# Tested on: K562 cells
# experimental_protocol: Annexin V-FITC/PI apoptosis assay
# Type: cell-based
# experimental_conditions: K562, 1 µM, 48 h
reported_property: normal live cells (living cells) (%)
The response must be a number in % with no trailing unit.

A selection of reference data follows.
>>> df
                                   compound  assay_target                 reported_property  observed_value
0  Cc1cn(-c2cc(NC(=O)c3cccc(C(=O)N4CCN(C(=O)c5cccc(F)c5)CC4)c3)cc(C(F)(F)F)c2)cn1 [Compound 15]    K562 cells  normal live cells (living cells)           74.91
1  CNC(=O)c1cc(Oc2ccc(NC(=O)Nc3ccc(Cl)c(C(F)(F)F)c3)cc2)ccn1 [Sorafenib, reference compound]    K562 cells  normal live cells (living cells)           84.11
2  Cc1cn(-c2cc(NC(=O)c3cccc(C(=O)N4CCN(C(=O)c5ccccc5F)CC4)c3)cc(C(F)(F)F)c2)cn1 [Compound 14]    K562 cells  normal live cells (living cells)           83.95

Moving on to the next compound.
Query (compound): Cc1cn(-c2cc(NC(=O)c3cccc(C(=O)Nc4cccc(C(F)(F)F)c4)c3)cc(C(F)(F)F)c2)cn1 [Compound 5] ; field requested: normal live cells (living cells)
79.72

====

# assay_target: HER4 (Homo sapiens, UniProt Q15303)
# Construct: purchased Promega
# Sequence (Q15303 26-1308): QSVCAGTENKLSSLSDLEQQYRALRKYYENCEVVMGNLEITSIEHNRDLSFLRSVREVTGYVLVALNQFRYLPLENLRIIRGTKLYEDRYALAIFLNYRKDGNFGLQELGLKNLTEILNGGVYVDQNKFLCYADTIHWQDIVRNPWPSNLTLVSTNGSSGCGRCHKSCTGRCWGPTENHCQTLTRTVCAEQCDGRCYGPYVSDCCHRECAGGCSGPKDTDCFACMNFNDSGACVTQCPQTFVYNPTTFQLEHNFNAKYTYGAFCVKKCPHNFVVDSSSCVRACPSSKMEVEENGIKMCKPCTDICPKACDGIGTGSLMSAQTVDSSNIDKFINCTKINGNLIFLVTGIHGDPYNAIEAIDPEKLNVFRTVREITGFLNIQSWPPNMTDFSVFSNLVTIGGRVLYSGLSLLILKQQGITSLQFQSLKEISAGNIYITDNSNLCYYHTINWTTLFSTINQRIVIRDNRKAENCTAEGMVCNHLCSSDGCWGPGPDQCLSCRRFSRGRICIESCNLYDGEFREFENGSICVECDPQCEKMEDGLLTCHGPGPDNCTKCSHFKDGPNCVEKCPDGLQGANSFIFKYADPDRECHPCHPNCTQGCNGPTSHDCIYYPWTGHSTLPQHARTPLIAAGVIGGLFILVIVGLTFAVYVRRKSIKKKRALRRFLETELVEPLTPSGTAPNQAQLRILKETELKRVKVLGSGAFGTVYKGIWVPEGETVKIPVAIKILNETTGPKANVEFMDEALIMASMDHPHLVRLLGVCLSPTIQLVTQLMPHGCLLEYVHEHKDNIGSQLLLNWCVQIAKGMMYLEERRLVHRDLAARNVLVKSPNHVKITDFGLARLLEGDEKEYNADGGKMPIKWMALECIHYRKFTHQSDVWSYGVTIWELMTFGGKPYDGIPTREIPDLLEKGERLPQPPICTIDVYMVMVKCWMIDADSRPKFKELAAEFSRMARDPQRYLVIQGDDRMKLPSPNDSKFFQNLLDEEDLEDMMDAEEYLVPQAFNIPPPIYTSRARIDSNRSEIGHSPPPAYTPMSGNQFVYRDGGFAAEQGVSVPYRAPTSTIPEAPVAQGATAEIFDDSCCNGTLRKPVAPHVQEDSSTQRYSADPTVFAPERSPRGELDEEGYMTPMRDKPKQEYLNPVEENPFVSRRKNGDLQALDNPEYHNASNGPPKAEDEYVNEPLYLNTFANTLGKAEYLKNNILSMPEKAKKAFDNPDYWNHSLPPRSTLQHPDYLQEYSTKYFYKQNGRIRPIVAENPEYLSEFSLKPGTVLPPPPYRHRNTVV
# experimental_protocol: ADP-Glo kinase assay, HER4
# Type: biochemical
reported_property: inhibition at 10 µM (%)
The response must be a number in % with no trailing unit.

A selection of reference data follows.
>>> print(df.to_string())
                               given_smiles  observed_value
0  Cc1cn(-c2cc(NC(=O)c3cccc(C(=O)Nc4cccc(C(F)(F)F)c4)c3)cc(C(F)(F)F)c2)cn1               0
1  Cc1cn(-c2cc(NC(=O)c3ccc(C(=O)Nc4cc([N+](=O)[O-])ccc4C)cc3)cc(C(F)(F)F)c2)cn1               3
2  Cc1cn(-c2cc(NC(=O)c3cccc(C(=O)N4CCN(C(=O)c5ccccc5F)CC4)c3)cc(C(F)(F)F)c2)cn1               0

Query (compound): Cc1cn(-c2cc(NC(=O)c3ccc(C(=O)Nc4cccc(C(F)(F)F)c4)cc3)cc(C(F)(F)F)c2)cn1 ; field requested: inhibition at 10 µM
0

====

Recorded pIC50, one value per entry.
# Test system: RPMI 1788 cells (B lymphocyte, human)
# experimental_protocol: MTT cell proliferation assay, normal RPMI 1788 cells
# Type: cell-based
# experimental_conditions: normal human lymphoblastoid cells RPMI 1788, 72 h of exposition, read-out: Anti-proliferative activity IC50, RPMI 1788
# pIC50 is unitless: minus log10 of the molar concentration; print number only

A selection of reference data follows.
>>> df
                                   compound  observed_value
0  Cc1cn(-c2cc(NC(=O)c3ccc(C(=O)Nc4cc([N+](=O)[O-])ccc4C)cc3)cc(C(F)(F)F)c2)cn1 [Compound 24]            4.44
1  CS(=O)(=O)CCNCc1ccc(-c2ccc3ncnc(Nc4ccc(OCc5cccc(F)c5)c(Cl)c4)c3c2)o1 [Lapatinib, reference compound]            5.03
2  Cc1cn(-c2cc(NC(=O)c3cccc(C(=O)Nc4cccc(C(F)(F)F)c4)c3)cc(C(F)(F)F)c2)cn1 [Compound 5]            5.54

Moving on to the next compound.
Query (compound): Cc1cn(-c2cc(NC(=O)c3ccc(C)c(Nc4nccc(-c5cccnc5)n4)c3)cc(C(F)(F)F)c2)cn1 [Nilotinib, reference compound] ; field requested: pIC50
4.71
